- test.target: UniProt P43116
- Sequence (P43116 whole entry): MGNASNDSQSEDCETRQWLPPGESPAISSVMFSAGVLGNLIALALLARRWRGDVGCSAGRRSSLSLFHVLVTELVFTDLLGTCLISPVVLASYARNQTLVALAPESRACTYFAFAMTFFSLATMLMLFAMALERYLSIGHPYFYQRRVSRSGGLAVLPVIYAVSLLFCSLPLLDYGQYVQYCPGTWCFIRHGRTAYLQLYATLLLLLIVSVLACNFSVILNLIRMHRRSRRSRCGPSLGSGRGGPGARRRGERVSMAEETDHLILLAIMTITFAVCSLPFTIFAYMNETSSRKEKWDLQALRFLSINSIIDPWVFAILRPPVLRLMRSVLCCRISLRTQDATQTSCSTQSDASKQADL
- test.protocol: hEP2 b-arrestin assay (PathHunter HEK 293 PTGER2 b-arrestin cells)
- reported.conditions: antagonistic activity, beta-arrestin assay; read-out: hEP2 b-arr IC50
pIC50: −log10 of the molar value.
parameter: pIC50

{"compound": "CCOc1cc(-c2cc(NCCc3c(Br)sc4c(C)cc(F)cc34)ncn2)ccc1C(=O)O [Example 58]", "quantitative.result": 7.92}
{"compound": "Cc1sc2c(C)cc(F)cc2c1CCNc1cc(-c2cnn(C(C)(C)C(=O)O)c2)ncn1 [Example 214]", "quantitative.result": 6.63}
{"compound": "CCOc1cc(-c2cc(NCCc3c(C)oc4c(OC)cc(Cl)cc34)ncn2)ccc1C(=O)O [Example 70]", "quantitative.result": 7.43}
{"compound": "Cc1oc2ccccc2c1CCNc1cc(-c2ccc(C(=O)O)c(SC3CCC3)c2)ncn1 [Example 129]", "quantitative.result": 8.22}
{"compound": "CCOc1cc(-c2cc(NCCc3c(C)oc4c(OC)cc(F)c(F)c34)ncn2)sc1C(=O)O [Example 31]", "quantitative.result": 7.96}

(A) Cc1sc2c(C)cc(F)cc2c1CCNc1cc(-c2ccc(C(=O)O)c(OC(F)F)c2)ncn1 [Example 115]
(B) CCCc1cc(-c2cc(NCCc3c(C)sc4c(C)cc(F)cc34)ncn2)sc1CC(=O)O [Example 219]
(C) CSc1cc(-c2cc(NCCc3c(C)sc4ccccc34)ncn2)ccc1C(=O)O [Example 24]
(D) CCOc1nc(-c2cc(NCCc3c(C)sc4c(C)cc(F)cc34)ncn2)sc1-c1noc(=O)[nH]1 [Example 162]
// sort entries: pIC50, high to low List each label, following the requested order.
C, D, A, B
(C: 8.52, D: 8.22, A: 7.80, B: 7.39)

(I) CCOc1cc(-c2cc(NCCc3c(C#N)sc4c(C)cc(F)cc34)ncn2)ccc1CC(=O)O [Example 104]
(II) CCOc1cc(-c2cc(NCCc3c(C)sc4c(Cl)cc(F)cc34)ncn2)ccc1C(=O)O [Example 65]
Among I and II , whose measured pIC50 is the smaller figure? Please respond with the label that marks your chosen entry.
I
(I: 7.44, II: 7.80)

(a) Cc1sc2c(C)cccc2c1CCNc1cc(-c2ccc(C(=O)O)cc2)ncn1 [Example 8]
(b) Cc1sc2c(C)cc(F)cc2c1CCNc1cc(-c2ccc(CC(=O)O)c(OC(C)C)c2)ncn1 [Example 192]
Which of the two gives a bigger number for pIC50: a or b ? Please respond with the label that marks your chosen entry.
a
(a: 7.80, b: 7.14)
